system: 598228-144-R-J1-PDC complex spheroid viability; assay: Anticancer human tumor 598228-144-R-J1-PDC patient-derived serous endometrial adenocarcinoma cell line growth inhibition [GQUAD]; conditions: second compound 3.16 µM; first compound 0.0316 µM; active compounds read low;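 further: spheroids exposed to the agents for one week before reading; percent of vehicle DMSO control viability so 100% = untreated growth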
metric: viability, T/C (%)
Your answer should be a plain number; it is taken to be in %.

[
  {
    "compound": "CC(=O)O[C@H]1C(=O)[C@@]2(C)[C@H]([C@H](OC(=O)c3ccccc3)[C@]3(O)C[C@H](OC(=O)[C@H](O)[C@@H](NC(=O)c4ccccc4)c4ccccc4)C(C)=C1C3(C)C)[C@]1(OC(C)=O)CO[C@@H]1C[C@@H]2O + Cc1cnc(CNC(=O)c2c(=O)c3ccc(N4CCCN(C)CC4)nc3n3c2sc2ccccc23)cn1",
    "viability, T/C, %": 46.9
  },
  {
    "compound": "CC(C)n1c(=O)n(C)c2cnc3cc(F)c(-c4ccc(OCCCN5CCCCC5)nc4)cc3c21 + Cc1[nH]c2ccc(F)cc2c1-c1nc2c3cccnc3c3ncccc3c2[nH]1",
    "viability, T/C, %": 45.2
  },
  {
    "compound": "O=C(NO)c1cnc(N2CCN(S(=O)(=O)c3ccc4ccccc4c3)CC2)nc1 + CN(C)c1ccc(Nc2c3ccc(NC(=O)CCN4CCCC4)cc3nc3cc(NC(=O)CCN4CCCC4)ccc23)cc1",
    "viability, T/C, %": 108
  },
  {
    "compound": "O=C(NO)c1cnc(N2CCN(S(=O)(=O)c3ccc4ccccc4c3)CC2)nc1 + Cc1[nH]c2ccc(F)cc2c1-c1nc2c3cccnc3c3ncccc3c2[nH]1",
    "viability, T/C, %": 39.8
  }
]

We next turn to a different compound, shown below.
Q: What value of measured viability, T/C is listed for CC1COCCN1c1cc(C2(O)CC3CCC(C2)O3)c2cnn(-c3ccn[nH]3)c2n1 (stereo not given) + Cc1cnc(CNC(=O)c2c(=O)c3ccc(N4CCCN(C)CC4)nc3n3c2sc2ccccc23)cn1 ?
A: 34.8
